Hello, the source for this data is patent US20260022175A1, in case you need it.

TARGET OR TEST SYSTEM: T1, human CTLA4 (human)
T1 construct: also called hCTLA4; hCTLA4-His-BAP
T1 sequence (chain, as listed by the source limits assumed): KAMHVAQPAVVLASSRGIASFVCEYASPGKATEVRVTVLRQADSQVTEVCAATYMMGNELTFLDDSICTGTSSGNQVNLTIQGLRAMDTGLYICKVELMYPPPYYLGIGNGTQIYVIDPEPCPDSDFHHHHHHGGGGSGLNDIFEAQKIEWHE
ASSAY INFO: SPR Biacore T200, 37C, antibody captured, no ATP, steady state model
MEASUREMENT NAME: Kd (µM)
Please give a number only; it is taken to be in µM.

# BINDER, UNITS, Kd
data = [
    ("04H1654-G1m/04L1606-lam1 (antibody, human IgG1, lambda, V domains shown) VH: QVQLVESGGGVVQPGGSLRLSCAASGFTFSSKTMNWVRQAPGKGLEWVSSISTQSHYIYYARSVRGRFTISRDNAKNSLYLQMNSLRAEDTAVYYCARYGKREDMLWVFDYWGQGTLVTVSS VL: QSALTQPPSASGSPGQSVTISCQGPSTGVGDYNWVHWYQQHPGKAPKLMIYFTSKKPSGVPDRFSGSKSGNTASLTVSGLQAEDEADYYCQTYAAPLGPMFGGGTKLTVLG", "µM", 6.8),
    ("04H1637-G1m/04L1581-lam1 (antibody, human IgG1, lambda, V domains shown) VH: QVQLVESGGGLVKPGGSLRLSCAASGFTFSSKTMNWVRQAPGKGLEWVSSISTQSHYIYYAESVRGRFTISRDNAKNSLYLQMNSLRAEDTAVYYCARYGKREDMLWVFDYWGQGTLVTVSS VL: QSALTQPPSASGSPGQSVTISCQGPSTGVGDYTWVHWYQQHPGKAPKLMIYFTIKKPKGVPDRFSGSKSGNTASLTVSGLQAEDEADYYCQTYAAPLGPMFGGGTKLTVLG", "µM", 3.2),
]

[ask] Query Kd for 04H1389-G1m/04L1086-lam1 (antibody, human IgG1, lambda, V domains shown) VH: EVQLVESGGGLVKPGGSLRLSCAASGFTFSSKTMNWVRQAPGKGLEWVSSISTQSHYIYYAESVKGRFTISRDNAKNSLYLQMNSLRAEDTAVYYCARYGKREDMLWVFDYWGQGTLVTVSS VL: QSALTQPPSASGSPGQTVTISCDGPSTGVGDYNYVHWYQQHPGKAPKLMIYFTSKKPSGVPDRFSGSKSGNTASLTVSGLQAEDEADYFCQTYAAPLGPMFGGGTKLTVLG
[reply] 5.7

[ask] Given the binder 04H1656-G1m/04L1606-lam1 (antibody, human IgG1, lambda, V domains shown) VH: QVQLVESGGGVVQPGGSLRLSCAASGFTFSSKTMNWVRQAPGKGLEWVSSISTQSHYIYYAESVRGRFTISRDNAKNSLYLQMNSLRAEDTAVYYCARYGAREDMLWVFDYWGQGTLVTVSS VL: QSALTQPPSASGSPGQSVTISCQGPSTGVGDYNWVHWYQQHPGKAPKLMIYFTSKKPSGVPDRFSGSKSGNTASLTVSGLQAEDEADYYCQTYAAPLGPMFGGGTKLTVLG , write its reported Kd.
[reply] 2.3
